# system name: POLRMT (Homo sapiens, UniProt O00411)
# Sequence (O00411 42-1230): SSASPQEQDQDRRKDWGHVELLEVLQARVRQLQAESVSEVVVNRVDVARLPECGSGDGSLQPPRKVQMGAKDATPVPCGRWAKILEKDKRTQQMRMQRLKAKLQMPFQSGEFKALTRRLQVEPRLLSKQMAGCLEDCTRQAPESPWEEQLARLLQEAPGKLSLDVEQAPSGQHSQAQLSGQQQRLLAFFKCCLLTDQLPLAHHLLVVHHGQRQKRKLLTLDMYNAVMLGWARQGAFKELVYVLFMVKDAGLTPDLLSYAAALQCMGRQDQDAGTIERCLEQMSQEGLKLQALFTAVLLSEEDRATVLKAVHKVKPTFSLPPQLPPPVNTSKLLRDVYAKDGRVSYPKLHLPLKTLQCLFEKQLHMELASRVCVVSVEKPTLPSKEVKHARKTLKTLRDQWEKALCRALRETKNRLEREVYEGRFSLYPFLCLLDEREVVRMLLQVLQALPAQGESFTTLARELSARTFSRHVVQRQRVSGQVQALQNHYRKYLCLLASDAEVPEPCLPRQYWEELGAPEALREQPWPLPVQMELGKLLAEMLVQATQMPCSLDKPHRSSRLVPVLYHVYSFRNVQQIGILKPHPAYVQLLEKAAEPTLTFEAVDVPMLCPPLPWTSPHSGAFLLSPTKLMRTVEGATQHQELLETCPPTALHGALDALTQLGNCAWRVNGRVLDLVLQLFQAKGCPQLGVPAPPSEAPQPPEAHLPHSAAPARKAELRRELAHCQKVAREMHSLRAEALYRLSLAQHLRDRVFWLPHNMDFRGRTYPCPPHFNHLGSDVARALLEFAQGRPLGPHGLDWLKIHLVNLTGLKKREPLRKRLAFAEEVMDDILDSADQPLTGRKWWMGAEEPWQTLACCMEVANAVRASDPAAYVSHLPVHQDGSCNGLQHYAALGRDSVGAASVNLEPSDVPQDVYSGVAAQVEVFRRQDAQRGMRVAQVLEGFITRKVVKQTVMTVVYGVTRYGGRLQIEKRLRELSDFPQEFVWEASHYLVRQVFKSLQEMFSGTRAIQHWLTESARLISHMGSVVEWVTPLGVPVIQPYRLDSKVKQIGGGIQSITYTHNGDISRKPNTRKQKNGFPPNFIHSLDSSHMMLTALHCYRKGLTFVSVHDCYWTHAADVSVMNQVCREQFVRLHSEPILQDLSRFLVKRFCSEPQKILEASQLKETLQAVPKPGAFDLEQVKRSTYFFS
# experimental details: homogeneous TR-FRET assay of mitochondrial transcription (inhibition of POLRMT)
# Format: biochemical
# measurement conditions: isoquinolinone compounds (Table 1)
pIC50: −log10 of the molar value.

molecule: Cc1ccccc1-c1c[nH]c(=O)c2cc(OC(C)C(N)=O)ccc12 (single isomer, unassigned) [Example 72]
operator symbol: =
pIC50: 4.77
//
molecule: C[C@@H](Oc1ccc2c(-c3ccc(F)cc3Cl)c[nH]c(=O)c2c1)C(=O)N1CCN(CC(F)(F)F)CC1
operator symbol: =
pIC50: 6.40
//
molecule: C[C@@H](Oc1ccc2c(-c3ccc(F)cc3Cl)c[nH]c(=O)c2c1)C(=O)N1CCOC[C@@H]1C(=O)O
operator symbol: =
pIC50: 6.40
//
molecule: Cc1ccccc1-c1c[nH]c(=O)c2cc(OCCN(C)C)ccc12
operator symbol: <
pIC50: 4.00
